Test system: Escherichia coli TOP10;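 note: peptides expressed intracellularly from a pBAD plasmid library in pooled LB shake-flask culture, induced with 0.3% L-arabinose, DNA abundance read by NGS, three biological replicates, DESeq2 with apeglm shrinkage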
PROTOCOL SUMMARY: shrunken log2 fold change of peptide-encoding DNA abundance (4.5 h post-induction vs induction); higher = less antimicrobial activity (less host growth inhibition)
EXPERIMENTAL CONTEXT: time post-induction: 4.5 h; library: site-saturation at positions 5, 18, 19, 20
Please use fulfilled whenever shrunken log2 fold change is not below 0.02, and not fulfilled whenever it is.

Evaluate RRIRQRPPRLPRPRPRPPCRPRP : shrunken log2 fold change at minimum 0.02?
not fulfilled

Hi, just wondering whether RRIRNRPPRLPRPRPRPIDCPRP shows shrunken log2 fold change of 0.02 or higher.
not fulfilled

shrunken log2 fold change >= 0.02 for RRIRFRPPRLPRPRPRPTQPPRP ?
fulfilled

Does RRIRARPPRLPRPRPRPIVWPRP have a reported shrunken log2 fold change of at least 0.02?
fulfilled

API: above_or_equal(metric=shrunken log2 fold change, cutoff=0.02) for item RRIRMRPPRLPRPRPRPEISPRP
fulfilled

For this sequence, is measured shrunken log2 fold change 0.02 or higher? RRIRVRPPRLPRPRPRPTICPRP
not fulfilled

Record RRIRYRPPRLPRPRPRPEWKPRP ; criterion: shrunken log2 fold change no lower than 0.02. Met?
not fulfilled

Hello, I need to know if RRIRMRPPRLPRPRPRPQREPRP has measured shrunken log2 fold change not below 0.02. Thanks!
fulfilled

Does shrunken log2 fold change meet or surpass 0.02 for RRIRARPPRLPRPRPRPLDMPRP ?
not fulfilled

Would you say RRIRMRPPRLPRPRPRPGVSPRP shows shrunken log2 fold change at minimum 0.02?
fulfilled

Determine whether this sequence has shrunken log2 fold change no lower than 0.02: RRIRNRPPRLPRPRPRPYCEPRP
not fulfilled

Is the recorded value of shrunken log2 fold change equal to or greater than 0.02 for this sequence? RRIRMRPPRLPRPRPRPWWTPRP
fulfilled

# check: shrunken log2 fold change of RRIRARPPRLPRPRPRPMYPPRP is greater than or equal to 0.02
not fulfilled

Decide: shrunken log2 fold change of RRIRHRPPRLPRPRPRPIKHPRP >= 0.02?
not fulfilled

Identify whether the reported shrunken log2 fold change of the following sequence is 0.02 or greater: RRIRIRPPRLPRPRPRPHLEPRP
not fulfilled

Decide: shrunken log2 fold change of RRIRGRPPRLPRPRPRPSHQPRP >= 0.02?
not fulfilled

Would you say RRIRHRPPRLPRPRPRPYYIPRP shows shrunken log2 fold change at minimum 0.02?
not fulfilled

State whether the measured shrunken log2 fold change reaches 0.02, counting equality as reaching it, for RRIRKRPPRLPRPRPRPLNSPRP
not fulfilled

Check the entry RRIRQRPPRLPRPRPRPVYGPRP : does shrunken log2 fold change equal or exceed 0.02?
not fulfilled

Given RRIRCRPPRLPRPRPRPGFQPRP , state whether its shrunken log2 fold change is at least 0.02.
not fulfilled

Please tell me: is the sequence RRIRQRPPRLPRPRPRPFMSPRP at or over 0.02 in terms of shrunken log2 fold change?
not fulfilled

Is reported shrunken log2 fold change greater than or equal to 0.02 here: RRIRVRPPRLPRPRPRPRMPPRP
fulfilled

# check: shrunken log2 fold change of RRIRSRPPRLPRPRPRPNNGPRP is greater than or equal to 0.02
not fulfilled

Please tell me: is the sequence RRIRQRPPRLPRPRPRPMAPPRP at or over 0.02 in terms of shrunken log2 fold change?
fulfilled

Decide: shrunken log2 fold change of RRIRDRPPRLPRPRPRPQPGPRP >= 0.02?
fulfilled

Determine whether this sequence has shrunken log2 fold change no lower than 0.02: RRIRARPPRLPRPRPRPHVPPRP
not fulfilled

Given RRIRKRPPRLPRPRPRPKFDPRP , state whether its shrunken log2 fold change is at least 0.02.
not fulfilled

Reported shrunken log2 fold change reaches at least 0.02 for RRIRSRPPRLPRPRPRPDWIPRP ?
not fulfilled

Exam item: decide whether the reported shrunken log2 fold change for RRIRRRPPRLPRPRPRPPNQPRP is at least 0.02.
fulfilled

Form field: shrunken log2 fold change at least 0.02? Entry: RRIRMRPPRLPRPRPRPAQQPRP
fulfilled

Is it the case that RRIRNRPPRLPRPRPRPWTFPRP has shrunken log2 fold change reaching or exceeding 0.02?
not fulfilled

Hello, the source for this data is the supplement of paper PMC9112550, in case you need it.
